measured.target: mMC3R (Mus musculus, UniProt P33033)
Sequence (P33033 whole entry): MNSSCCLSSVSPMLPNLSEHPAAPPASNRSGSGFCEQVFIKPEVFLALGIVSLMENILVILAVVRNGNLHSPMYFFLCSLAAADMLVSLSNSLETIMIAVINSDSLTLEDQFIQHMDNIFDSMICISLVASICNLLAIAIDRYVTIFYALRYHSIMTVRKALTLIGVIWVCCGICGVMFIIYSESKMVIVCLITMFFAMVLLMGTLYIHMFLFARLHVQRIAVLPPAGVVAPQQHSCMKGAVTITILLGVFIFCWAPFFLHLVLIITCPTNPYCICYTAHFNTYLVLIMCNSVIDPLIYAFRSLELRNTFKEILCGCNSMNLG
condition.notes: calculated using Ki values from Schild analysis
Square brackets hold non-standard residues; d marks the D form. Peptide text beside a SMILES is read from it. hPhe = N[C@@H](CCc1ccccc1)C(=O)O; Nle = CCCC[C@H](N)C(=O)O
metric: fold increase in potency at the mMC3R compared to 1

>  <molecule>
CCCC[C@@H]1NC(=O)[C@H](CO)NC(=O)[C@H](CCCNC(=N)N)NC(=O)[C@H](CCc2ccccc2)NC(=O)[C@H](Cc2ccccc2)NC(=O)[C@H](CCCNC(=N)N)NC(=O)[C@@H]2CCCN2C(=O)[C@H]2CCCN2C1=O [Compound 24, c[Pro-Arg-Phe-hPhe-Arg-Ser-Nle-DPro]] (cyclo(RF[hPhe]RS[Nle][dP]P))

>  <result>
greater than 10 fold

$$$$
>  <molecule>
C[C@@H]1NC(=O)[C@H](CCCNC(=N)N)NC(=O)[C@H](Cc2ccccc2)NC(=O)[C@H](Cc2ccccc2)NC(=O)[C@H](CCCNC(=N)N)NC(=O)[C@@H]2CCCN2C(=O)[C@H]2CCCN2C(=O)[C@H](Cc2ccccc2)NC1=O [Compound 9, c[Pro-Arg-Phe-Phe-Arg-Ala-Phe-DPro]] (cyclo(RFFRAF[dP]P))

>  <result>
greater than 10 fold

$$$$
